These measurements were taken from paper PMC8948939.

molecular target: UniProtKB P11712; test: IC50 and IC50 shift on CYP2C9 marker reaction (diclofenac 4-hydroxylation) in HLM; type: in vitro ADME; design: tissue Corning Inc; host or cells: pooled human liver microsomes (150 donors); details: 30 min pre-incubation in the absence of NADPH, read-out: IC50 NADPH (−) (95% Confidence Interval)
The entries below are paired with their reported pIC50.
// pIC50: -log10(molar conc.)

compound	pIC50
C[C@@H](c1ncnc(O)c1F)[C@](O)(Cn1cncn1)c1ccc(F)cc1F [OH–VRC, hydroxyvoriconazole]	5.43

Now for a further compound.
Ask: Fill in the blank: the reported pIC50 of C[C@@H](c1nc[n+]([O-])cc1F)[C@](O)(Cn1cncn1)c1ccc(F)cc1F [NO, voriconazole N-oxide] is ____.
Reply: 5.00

----------
molecular target: CYP3A4 (Homo sapiens, UniProt P08684); experiment: Michaelis-Menten kinetics of midazolam 1-hydroxylation (CYP3A4 marker reaction) in HLM; type: in vitro ADME; set-up: tissue Corning Inc; host or cells: pooled human liver microsomes (150 donors); conditions: human, human liver microsomes, pH 7.5; midazolam 1-hydroxylation; HLM
Sequence (P08684 2-503 limits assumed): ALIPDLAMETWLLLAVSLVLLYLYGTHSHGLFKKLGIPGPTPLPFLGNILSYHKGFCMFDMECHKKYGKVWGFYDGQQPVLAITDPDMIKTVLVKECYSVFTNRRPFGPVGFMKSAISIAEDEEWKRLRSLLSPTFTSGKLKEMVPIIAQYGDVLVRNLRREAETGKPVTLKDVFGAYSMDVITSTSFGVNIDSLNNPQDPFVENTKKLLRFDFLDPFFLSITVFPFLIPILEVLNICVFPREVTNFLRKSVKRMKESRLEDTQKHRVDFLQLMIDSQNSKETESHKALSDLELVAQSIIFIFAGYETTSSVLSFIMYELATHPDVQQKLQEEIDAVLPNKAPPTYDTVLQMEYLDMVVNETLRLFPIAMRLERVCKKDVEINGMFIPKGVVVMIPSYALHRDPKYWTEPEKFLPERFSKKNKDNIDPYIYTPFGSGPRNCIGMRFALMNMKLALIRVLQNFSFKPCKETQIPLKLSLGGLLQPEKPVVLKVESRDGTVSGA
quantity: microsomal CLint (µL/min/mg)
The reply should be a number in µL/min/mg, with the unit left off.

Ask: Fill in the blank: the reported microsomal CLint of Cc1ncc2n1-c1ccc(Cl)cc1C(c1ccccc1F)=NC2 [Midazolam, midazolam] is ____.
Reply: 126

----------
target: CYP2C9 (Homo sapiens, UniProt P11712); assay: in vitro; conditions: microsomes, pH 7.5
Sequence (P11712 whole entry): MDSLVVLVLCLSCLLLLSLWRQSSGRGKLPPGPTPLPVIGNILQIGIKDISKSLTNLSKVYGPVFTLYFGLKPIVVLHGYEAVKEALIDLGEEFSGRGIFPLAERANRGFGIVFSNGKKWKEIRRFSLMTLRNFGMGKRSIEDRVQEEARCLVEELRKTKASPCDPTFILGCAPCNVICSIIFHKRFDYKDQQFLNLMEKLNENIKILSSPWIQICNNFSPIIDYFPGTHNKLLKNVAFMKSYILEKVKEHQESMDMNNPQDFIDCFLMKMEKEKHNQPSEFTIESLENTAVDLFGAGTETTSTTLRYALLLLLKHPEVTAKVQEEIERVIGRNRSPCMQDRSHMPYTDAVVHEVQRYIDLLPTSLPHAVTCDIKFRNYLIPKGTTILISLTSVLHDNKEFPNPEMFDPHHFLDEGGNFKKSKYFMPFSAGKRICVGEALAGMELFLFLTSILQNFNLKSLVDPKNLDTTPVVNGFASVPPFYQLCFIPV
quantity: microsomal CLint (µL/min/mg)
The reply should be a number in µL/min/mg, with the unit left off.

Ask: Fill in the blank: the reported microsomal CLint of `O=C(O)Cc1ccccc1Nc1c(Cl)cccc1Cl` is ____.
Reply: 408

----------
experiment: Michaelis-Menten kinetics of voriconazole N-oxidation in human intestine microsomes; assay type: in vitro ADME; details: human, human intestine microsomes, pH 7.5; HIM; ratio of Vmax and KM
quantity: microsomal CLint
Hi, when you answer, please include the unit after the number. Thanks!

Ask: Fill in the blank: the reported microsomal CLint of C[C@@H](c1ncncc1F)[C@](O)(Cn1cncn1)c1ccc(F)cc1F [VRC, voriconazole] is ____.
Reply: 1.52 µL/min/mg

----------
tested on: CYP2C19 (loratadine), CYP2C9 (sulfaphenazole), CYP3A4 (ketoconazole); assay: in vitro; details: human, pH 7.5, % of Uninhibited Control (voriconazole N-oxidation velocity), HLM; voriconazole 0.5 µM
quantity: activity (%)
The reply should be a number in %, with the unit left off.

compound	quantity	numeric.result
Nc1ccc(S(=O)(=O)Nc2ccnn2-c2ccccc2)cc1 [sulfaphenazole]	activity	64.8

Now for a further compound.
Ask: Fill in the blank: the reported activity of CC(=O)N1CCN(c2ccc(OCC3COC(Cn4ccnc4)(c4ccc(Cl)cc4Cl)O3)cc2)CC1 (centres unmarked) [ketoconazole] is ____.
Reply: 49.8

----------
The entries below are paired with their reported activity.
test system: CYP2C19 (loratadine), CYP2C9 (sulfaphenazole), CYP3A4 (ketoconazole); assay: in vitro; settings: human, pH 7.5, % of Uninhibited Control (voriconazole N-oxidation velocity), HLM; voriconazole 3 µM
The reply should be a number in %, with the unit left off.

compound	study.target	units.label	numeric.result
Nc1ccc(S(=O)(=O)Nc2ccnn2-c2ccccc2)cc1	CYP2C19 (loratadine), CYP2C9 (sulfaphenazole), CYP3A4 (ketoconazole)	%	66.9

Ask: Fill in the blank: the reported activity of CC(=O)N1CCN(c2ccc(OCC3COC(Cn4ccnc4)(c4ccc(Cl)cc4Cl)O3)cc2)CC1 (centres unmarked) is ____.
Reply: 57.9
